Reference for the values: the supplement of paper PMC10567573

B1: JUNB (parent)
chain: FVKALDDLHKMNHVTPPNVSLGAT

- Variants of: B1
- assayNotes: protein stability index of a GFP-peptide fusion (GPS, HEK-293T) (PSI 1-6); higher = more stable;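 note: lentivirally expressed fusions sorted by FACS into six bins by GFP to DsRed ratio, PSI derived from sequencing read proportions per bin multiplied by bin number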
- conditionDetails: c terminus: a fixed tail appended
Each entry below lists one item and its recorded protein stability index value.
measuredMetric: protein stability index

inputSequence	recordedMeasurement
FVKALDDLHKMNDVTPPNVSLGAT [H13D]	1.92
FVKALDDLHTMNHVTPPNVSLGAT [K10T]	2.21
FVKAWDDLHKMNHVTPPNVSLGAT [L5W]	3.57
FVKALDFLHKMNHVTPPNVSLGAT [D7F]	2.71
FVKALDDLHKMNHLTPPNVSLGAT [V14L]	1.88
FVKAADDLHKMNHVTPPNVSLGAT [L5A]	2.23
FVKALDDLHKMNHVTPPNVDLGAT [S20D]	1.72
FVKALDDLHKMNHVTPPNVYLGAT [S20Y]	3.04
FVKALDDLHKMNHVTPSNVSLGAT [P17S]	1.83
FVTALDDLHKMNHVTPPNVSLGAT [K3T]	2.02
FVKALDDEHKMNHVTPPNVSLGAT [L8E]	2.31
FSKALDDLHKMNHVTPPNVSLGAT [V2S]	4.07
FVKALDDLHKMNHRTPPNVSLGAT [V14R]	1.84
FVKRLDDLHKMNHVTPPNVSLGAT [A4R]	1.61
FVKALDDLHKMNHVTPPNVSLGAM [T24M]	1.81
PVKALDDLHKMNHVTPPNVSLGAT [F1P]	4.57
FVKALDDLHKMNHVTPPNVSRGAT [L21R]	2.15
FVKALDDLHKMNHVTPPIVSLGAT [N18I]	1.4
FVKALDDLHKMNHVMPPNVSLGAT [T15M]	2.3
